molecular target: BRD4 (BDI_K57-E168) (Homo sapiens, UniProt O60885); construct: BD1: amino acids K57-E168; test: TR-FRET bromodomain binding assay, BRD4 first bromodomain; settings: His-tagged BD1, 100 nM Alexa647 probe; Ki calculated from IC50; dilution protocol A-G
Provide the recorded pKi for the entries that follow.
API: returns pKi as number; meaning -log10 of concentration in mol/L.

// pKi value for Cc1[nH]c(-c2ccccc2Oc2ccccc2)c2cn[nH]c(=O)c12 : 8.12

// pKi value for COCc1cc2c(-c3ccccc3Oc3ccccc3)[nH]c(C)c2c(=O)[nH]1 : 7.18

// pKi value for Cc1[nH]c(-c2ccccc2Oc2ccc(F)cc2F)c2cc(C(N)=O)[nH]c(=O)c12 : 8.20

// pKi value for Cc1[nH]c(-c2ccccc2Oc2ccccc2)c2cc(C(N)=O)[nH]c(=O)c12 : 8.37

// pKi value for Cc1[nH]c(-c2cc(Cl)ccc2Oc2ccc(F)cc2F)c2cc(C(N)=O)[nH]c(=O)c12 : 7.64

// pKi value for Cc1[nH]c(-c2ccccc2Oc2ccccc2)c2cc(-c3nc(-c4cnccn4)no3)[nH]c(=O)c12 : 8.12

// pKi value for Cc1[nH]c(-c2ccccc2Oc2ccccc2)c2cc(C(=O)NCC3CCOC3)[nH]c(=O)c12 (centres unmarked) : 8.05

// pKi value for Cc1[nH]c(-c2ccccc2Oc2ccccc2)c2cc[nH]c(=O)c12 : 7.50
